# Tested system: T1, CD44v6 glycopeptide … with O-linked GalNAc on threonine 5 and serine 12 (human)
# T1 construct: Synthetic glycopeptide; also called CD44v6-Tn(S + T); Tn-glycosylated CD44v6 glycopeptide
# T1 peptide: GYRQT(GalNAc)PKEDSHS(GalNAc)TTGTAAA
# Procedure text: BLI (Octet); biotinylated peptide on biosensor, antibody in solution
Where no end group is shown, it is not given here. GalNAc = O-linked GalNAc (Tn antigen, GalNAc-alpha1-O-Ser/Thr)
Reported endpoint: Kd (nM)
Numeric answer only, unit nM assumed.

A selection of reference data follows.
binder="humanized 4C8 candidate 1 (4C8-HV1-18-A/LV7-43-A) (antibody, V domains shown, also called Molecule Number 1) VH: QVQLVQSGAEVKKPGASVKVSCKASGYTFTSYWMHWVRQAPGQGLEWIGNIYPRSGTTNYDGYFKSRATLTVDTSTSTAYMELRSLRSDDTAVYFCTRSGYDYPFVYWGQGTLVTVSS VL: QAVVTQEPSLTVSPGGTVTLTCRTSTGAVSIRNYANWVQEKPGQAFRGLIGGTNNRAPWTPARFSGSLLGDKAALTLSGVQPEDEAEYFCALLYSNYWVFGGGTKLTVL" units_symbol=nM data_value=191
binder="humanized 4C8 candidate 2 (4C8-HV1-46-A/LV7-43-A) (antibody, V domains shown, also called Molecule Number 2) VH: QVQLVQSGAEVKKPGASVKVSCKASGYTFTSYWMHWVRQAPGQGLEWIGNIYPRSGTTNYDGYFKSRATLTVDTSTSTAYMELSSLRSEDTAVYFCTRSGYDYPFVYWGQGTLVTVSS VL: QAVVTQEPSLTVSPGGTVTLTCRTSTGAVSIRNYANWVQEKPGQAFRGLIGGTNNRAPWTPARFSGSLLGDKAALTLSGVQPEDEAEYFCALLYSNYWVFGGGTKLTVL" units_symbol=nM data_value=194
binder="humanized 4C8 candidate 6 (4C8-HV1-46-A/LV7-46-A) (antibody, V domains shown, also called Molecule Number 6) VH: QVQLVQSGAEVKKPGASVKVSCKASGYTFTSYWMHWVRQAPGQGLEWIGNIYPRSGTTNYDGYFKSRATLTVDTSTSTAYMELSSLRSEDTAVYFCTRSGYDYPFVYWGQGTLVTVSS VL: QAVVTQEPSLTVSPGGTVTLTCRTSTGAVSIRNYANWVQEKPGQAFRGLIGGTNNRAPWTPARFSGSLLGDKAALTLSGAQPEDEAEYFCALLYSNYWVFGGGTKLTVL" units_symbol=nM data_value=169
binder="humanized 4C8 candidate 7 (4C8-HV1-69-A/LV7-46-A) (antibody, V domains shown, also called Molecule Number 7) VH: QVQLVQSGAEVKKPGSSVKVSCKASGYTFTSYWMHWVRQAPGQGLEWIGNIYPRSGTTNYDGYFKSRATLTVDTSTSTAYMELSSLRSEDTAVYFCTRSGYDYPFVYWGQGTLVTVSS VL: QAVVTQEPSLTVSPGGTVTLTCRTSTGAVSIRNYANWVQEKPGQAFRGLIGGTNNRAPWTPARFSGSLLGDKAALTLSGAQPEDEAEYFCALLYSNYWVFGGGTKLTVL" units_symbol=nM data_value=183

Look up Kd: humanized 4C8 candidate 5 (4C8-HV1-18-A/LV7-46-A) (antibody, V domains shown, also called Molecule Number 5) VH: QVQLVQSGAEVKKPGASVKVSCKASGYTFTSYWMHWVRQAPGQGLEWIGNIYPRSGTTNYDGYFKSRATLTVDTSTSTAYMELRSLRSDDTAVYFCTRSGYDYPFVYWGQGTLVTVSS VL: QAVVTQEPSLTVSPGGTVTLTCRTSTGAVSIRNYANWVQEKPGQAFRGLIGGTNNRAPWTPARFSGSLLGDKAALTLSGAQPEDEAEYFCALLYSNYWVFGGGTKLTVL 177

Look up Kd: humanized 4C8 candidate 3 (4C8-HV1-69-A/LV7-43-A) (antibody, V domains shown, also called Molecule Number 3) VH: QVQLVQSGAEVKKPGSSVKVSCKASGYTFTSYWMHWVRQAPGQGLEWIGNIYPRSGTTNYDGYFKSRATLTVDTSTSTAYMELSSLRSEDTAVYFCTRSGYDYPFVYWGQGTLVTVSS VL: QAVVTQEPSLTVSPGGTVTLTCRTSTGAVSIRNYANWVQEKPGQAFRGLIGGTNNRAPWTPARFSGSLLGDKAALTLSGVQPEDEAEYFCALLYSNYWVFGGGTKLTVL 161
